Recorded GI50 by entry
- assay_target: BA/F3-FLT3-ITD + D835Y (Homo sapiens, UniProt P36888, D835Y, cells depend on it, form not given)
- assay_protocol: Engineered BA/F3 cell growth assay, FLT3 ITD/D835Y
- Format: cell-based, murine
- condition_info: 3 d growth
quantity_kind: GI50

In [3]: df
Out[3]:
                                 smiles_data  quantity_kind         measured
 0  Cn1cc(Nc2ncc(-c3ccc(CC(=O)Nc4cnc(Cl)c(C(F)(F)F)c4)c(F)c3)cn2)cn1           GI50  0.0001 to 10 µM
 1  COc1ccc(-c2cc3cc(-c4ccc(CC(=O)Nc5cncc(C(F)(F)F)c5)cc4F)cnc3[nH]2)cn1           GI50  0.0001 to 10 µM
 2  COc1ncc(NC(=O)Cc2ccc(-c3cnc4[nH]nc(C)c4c3)c(F)c2)cc1C(F)(F)F           GI50  0.0001 to 10 µM
 3  O=C(Cc1ccc(-c2cnc3[nH]c(-c4ccc(N5CCOCC5)nc4)cc3c2)c(F)c1)Nc1cncc(C(F)(F)F)c1           GI50  0.0001 to 10 µM
 4  Cn1cc(Nc2ncc(-c3ccc(CC(=O)Nc4ccc(C(C)(C)C#N)nc4)c(F)c3)cn2)cn1           GI50  0.0001 to 10 µM
 5  COc1cc(-c2cc3cc(-c4ccc(CC(=O)Nc5cnc(OC)c(C(F)(F)F)c5)c(F)c4)cnc3[nH]2)ccn1           GI50  0.0001 to 10 µM
 6  Cn1cc(Nc2ncc(-c3ccc(CC(=O)Nc4ccnc(S(C)(=O)=O)c4)cc3)cn2)cn1           GI50  0.0001 to 10 µM
 7  Cc1ncc(NC(=O)Cc2ccc(-c3cnc4[nH]cc(Cl)c4n3)cc2F)cc1C(F)(F)F           GI50  0.0001 to 10 µM
 8  O=C(Cc1ccc(-c2cnc3[nH]c(-c4ccccc4)cc3c2)cn1)Nc1ccnc(C(F)(F)F)c1           GI50  0.0001 to 10 µM
 9  O=C(Cc1ccc(-c2cnc3[nH]cc(F)c3c2)cc1F)Nc1cncc(C(F)(F)F)c1           GI50  0.0001 to 10 µM
10  Cn1cnc(Nc2ncc(-c3ccc(CC(=O)Nc4cnc(Cl)c(C(F)(F)F)c4)cc3)cn2)c1           GI50  0.0001 to 10 µM
11  CCn1cc(Nc2ncc(-c3ccc(CC(=O)Nc4cnc(C)c(C(F)(F)F)c4)c(F)c3)cn2)cn1           GI50  0.0001 to 10 µM
12  Cn1cnc(Nc2ncc(-c3ccc(CC(=O)Nc4cc(C(C)(F)F)ccn4)c(F)c3)cn2)c1           GI50  0.0001 to 10 µM
13  Cn1cc(Nc2ncc(-c3ccc(CC(=O)Nc4ccc(C#N)c(C(F)(F)F)c4)cc3)cn2)cn1           GI50  0.0001 to 10 µM
14  CCn1cc(Nc2ncc(-c3ccc(CC(=O)Nc4cnc(C)c(C(F)(F)F)c4)cc3)cn2)cn1           GI50  0.0001 to 10 µM

---

Entries and their pIC50 values follow.
- assay_target: FLT3-ITD (Homo sapiens)
- Sequence (P36888 1-993): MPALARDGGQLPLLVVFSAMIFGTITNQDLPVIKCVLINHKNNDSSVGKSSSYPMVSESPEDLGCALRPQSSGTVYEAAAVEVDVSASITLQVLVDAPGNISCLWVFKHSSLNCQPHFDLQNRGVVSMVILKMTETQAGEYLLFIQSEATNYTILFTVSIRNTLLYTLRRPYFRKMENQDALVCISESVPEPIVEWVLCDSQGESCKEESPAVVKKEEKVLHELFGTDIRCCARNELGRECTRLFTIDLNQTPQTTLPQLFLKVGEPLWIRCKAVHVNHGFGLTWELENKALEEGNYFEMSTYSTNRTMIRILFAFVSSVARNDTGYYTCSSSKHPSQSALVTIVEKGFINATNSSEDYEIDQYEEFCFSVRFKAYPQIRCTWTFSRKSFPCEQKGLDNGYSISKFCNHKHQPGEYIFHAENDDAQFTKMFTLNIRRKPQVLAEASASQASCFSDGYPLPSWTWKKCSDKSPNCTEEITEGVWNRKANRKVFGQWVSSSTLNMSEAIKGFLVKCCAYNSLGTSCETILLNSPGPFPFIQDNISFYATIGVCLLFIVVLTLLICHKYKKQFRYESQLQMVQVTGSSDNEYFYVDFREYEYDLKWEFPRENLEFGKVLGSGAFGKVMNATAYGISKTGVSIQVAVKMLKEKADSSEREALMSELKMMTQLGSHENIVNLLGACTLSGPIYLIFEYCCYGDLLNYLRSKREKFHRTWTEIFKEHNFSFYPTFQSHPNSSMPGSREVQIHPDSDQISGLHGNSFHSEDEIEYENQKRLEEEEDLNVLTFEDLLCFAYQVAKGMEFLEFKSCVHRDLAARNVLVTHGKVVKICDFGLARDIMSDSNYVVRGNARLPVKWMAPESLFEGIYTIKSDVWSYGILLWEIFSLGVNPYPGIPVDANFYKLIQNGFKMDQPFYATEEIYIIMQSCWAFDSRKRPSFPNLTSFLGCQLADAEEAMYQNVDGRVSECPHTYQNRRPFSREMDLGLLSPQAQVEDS
- assay_protocol: FLT3-ITD recombinant enzyme kinase assay (AlphaScreen)
- condition_info: 8 pt; read-out: FLT3_ITD 8 pt: IC50
pIC50: −log10 of the molar value.
quantity_kind: pIC50

                                smiles_data       measured
0  Cn1cc(Nc2ncc(-c3ccc(CC(=O)Nc4cc(Cl)c(C5CC5)cn4)c(F)c3)cn2)cn1  5.00 to 10.00
1  COc1ccc(-c2cc3cc(-c4ccc(CC(=O)Nc5cc(C(F)(F)F)ccn5)cc4F)cnc3[nH]2)cn1  5.00 to 10.00
2  COCCn1cc(Nc2ncc(-c3ccc(CC(=O)Nc4cnc(OC)c(C(F)(F)F)c4)cc3)cn2)cn1  5.00 to 10.00
